B1: Hairpin Ribozyme (parent)
chain: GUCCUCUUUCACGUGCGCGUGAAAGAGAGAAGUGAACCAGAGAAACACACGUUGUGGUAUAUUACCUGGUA

# Variants of: B1
# PROCEDURE_TEXT: self-cleavage, relative activity (ratio to wild type); higher = more cleavage; co-transcriptional
RESULT_TYPE: self-cleavage
// no unit string in output, number only

Look up self-cleavage for this variant: A22C G32U
0.107

Look up self-cleavage for this variant: U9A G40C
0.133

Look up self-cleavage for this variant: C50U U67A
0.2

Look up self-cleavage for this variant: U5A A71U
0.334

Look up self-cleavage for this variant: C12A A59U
0.176

Look up self-cleavage for this variant: C16G A43U
0.157

Look up self-cleavage for this variant: G1U G27U
0.199

Look up self-cleavage for this variant: G27C U52C
0.22

Look up self-cleavage for this variant: G34U A59G
0.23

Look up self-cleavage for this variant: U8A U20A
0.479

Look up self-cleavage for this variant: G32U U53G
0.103

Look up self-cleavage for this variant: G29C G51C
0.103

Look up self-cleavage for this variant: G29C A36C
0.179

Look up self-cleavage for this variant: C10G C66A
0.0906

Look up self-cleavage for this variant: C4G G21U
0.123

Look up self-cleavage for this variant: G25C U63A
0.0846

Look up self-cleavage for this variant: U62C A71C
0.595

Look up self-cleavage for this variant: U14G A41U
1.05

Look up self-cleavage for this variant: G15U
1.08

Look up self-cleavage for this variant: G40A U62G
0.133

Look up self-cleavage for this variant: G17A A36C
0.607

Look up self-cleavage for this variant: G15U C50U
0.49
